method-notes: Cyclic voltammetry (reduction of the nitro group)
Type: physicochemical
assay-context: cyclic voltammetry at 2.0 V/s
assay-readout: Ipa/Ipc

Quick one: Ipa/Ipc of Cc1noc(/C=C/c2ccc(O)c(O)c2)c1[N+](=O)[O-] [Compound 8] ? −0.34

Quick one: Ipa/Ipc of Cc1noc(/C=C/c2ccccc2)c1[N+](=O)[O-] [Compound 4, (E)-3-Methyl-4-nitro-5-styrylisoxazole] ? −0.09

Quick one: Ipa/Ipc of Cc1noc(/C=C/N2CCCCC2)c1[N+](=O)[O-] [Compound 3] ? −0.19

Quick one: Ipa/Ipc of Cc1noc(/C=C/c2ccco2)c1[N+](=O)[O-] [Compound 10] ? −0.16
